We begin with a simple list: items and their reported aptazyme ON/OFF ratio.
B1: Pistol ribozyme (parent)
chain: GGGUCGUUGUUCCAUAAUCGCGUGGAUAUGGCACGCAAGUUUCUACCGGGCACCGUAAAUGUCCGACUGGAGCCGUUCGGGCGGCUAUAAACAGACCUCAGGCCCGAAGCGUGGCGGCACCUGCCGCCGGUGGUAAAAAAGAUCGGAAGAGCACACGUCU

Variants of: B1
Test: aptazyme ON/OFF ratio, guanine; higher = stronger switching; co-transcriptional cleavage with and without guanine
quantity_measured: aptazyme ON/OFF ratio

# mut, quantity_measured, reported_result
measured = [
    ("U7G U8A U10G U11A C12A C13U", "aptazyme ON/OFF ratio", 1.12),
    ("U8G G9U U10C U11A C12A C13A", "aptazyme ON/OFF ratio", 1.07),
    ("U7A U8C U10C U11G C12A", "aptazyme ON/OFF ratio", 1.2),
]
